Experiment: inhibition of endothelial tube formation, primary screen, imaging, VEGF stimulated, CD31 staining, tube area, NPC library (AID 1117340)
Details: VEGF-stimulated ADSC/ECFC co-culture, at 10 µM
Calls of active or inactive are those of the source.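 How the source made its calls: active means compound that reduces growth-factor-driven endothelial tube area in a mixed cell culture, no cutoff stated; inactive means the rest.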
Choose one outcome from this list and give only that: 1 = active, 0 = inactive

Lab log entry: COc1cc2nc(N(C)CCCNC(=O)C3CCCO3)nc(N)c2cc1OC (stereo not drawn) — outcome as called in the assay?
0

Lab log entry: `O=C(CCC1CCN(Cc2ccccc2)CC1)c1ccc2c(c1)NCCCC2` — outcome as called in the assay?
0

###

Experiment: modulators of glucocorticoid suppression of NF-kB, cell-based, luciferase, IL-1B stimulus, dexamethasone (AID 624486);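 further: 100% = mean signal of vehicle control wells on the plate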
Conditions: NF-kB luciferase reporter, IL-1B + dexamethasone, luminescence; actives lie on both sides, concentration not given here
Quantity: percent of negative control (+Dex) (%)
Answer format: numeric, % implied, no suffix.

[[record]]
compound = "Cn1cc(C2=C(Nc3ccccc3)C(=O)NC2=O)c2ccccc21"
quantity = "percent of negative control (+Dex)"
test_value = 106

[[record]]
compound = "Cn1cc(C2=C(c3cn(CCN)c4ccccc34)C(=O)NC2=O)c2ccccc21"
quantity = "percent of negative control (+Dex)"
test_value = 99

[[record]]
compound = "COc1cccc(-n2ncc3c(N/N=C/c4cccc(F)c4)ncnc32)c1"
quantity = "percent of negative control (+Dex)"
test_value = 93.5

[[record]]
compound = "Nc1c(C(=O)c2cccc(-c3cccnc3)c2)cnn1-c1ccc(F)cc1F"
quantity = "percent of negative control (+Dex)"
test_value = 110

[[record]]
compound = "CCN1CCC(C(=O)NC2NNC3NNC(c4cccc(F)c4F)CC32)CC1 (stereo not given)"
quantity = "percent of negative control (+Dex)"
test_value = 114

[[record]]
compound = "Cc1ccc(O)cc1Nc1ccnc2ccc(S(C)(=O)=O)cc12"
quantity = "percent of negative control (+Dex)"
test_value = 60.5

[[record]]
compound = "CNCCCn1cc(C2=C(c3cn(C)c4ccccc34)C(=O)NC2=O)c2ccccc21"
quantity = "percent of negative control (+Dex)"
test_value = 102

[[record]]
compound = "CNC(=O)c1cccc(C#Cc2cncnc2Nc2ccc(OCc3cccc(F)c3)c(Cl)c2)c1"
quantity = "percent of negative control (+Dex)"
test_value = 78


Just so you know, measured percent of negative control (+Dex) for `CS(=O)(=O)CCc1cccc(C(=O)c2cnn(-c3ccc(F)cc3)c2N)c1` came out at 102

Just so you know, measured percent of negative control (+Dex) for `N#Cc1c(C(=O)c2ccccc2)cnn1-c1ccccc1` came out at 106

###

Experiment: growth inhibition of GSK3B-pretreated HCT116 cells – cell-based, CellTiter-Glo, 0.2 to 20 µM (AID 1117336)
Conditions: HCT116 viability after GSK3B inhibitor, at 20 µM, stronger effect = higher value
Quantity: viability decrease (%)
Answer format: numeric, % implied, no suffix.

[[record]]
compound = "c1ccc(-n2cnnn2)cc1"
quantity = "viability decrease"
test_value = -7.2

[[record]]
compound = "CC(C)(C)NC[C@H](O)COc1nsnc1N1CCOCC1"
quantity = "viability decrease"
test_value = 6.4

[[record]]
compound = "CC(=O)OC[C@H]1O[C@@H](n2ncc(=O)[nH]c2=O)[C@H](OC(C)=O)[C@@H]1OC(C)=O"
quantity = "viability decrease"
test_value = 47.3

[[record]]
compound = "Oc1ccc(C(O)CNCCCCCCNCC(O)c2ccc(O)c(O)c2)cc1O (stereo not given)"
quantity = "viability decrease"
test_value = 76.1


Just so you know, measured viability decrease for `Cc1ccc(/C=N/n2c(-c3ccccc3)csc2=S)cc1` came out at 50.3

Just so you know, measured viability decrease for `C[C@H](CCC(=O)O)[C@H]1CC[C@H]2[C@@H]3C(=O)C[C@@H]4CC(=O)CC[C@]4(C)[C@H]3CC(=O)[C@]12C` came out at -1

Just so you know, measured viability decrease for `O=C1c2c(O)ccc(O)c2C(=O)c2c(NCCNCCO)ccc(NCCNCCO)c21` came out at 102

Just so you know, measured viability decrease for `Cc1cccc(C)c1OCC(=O)N[C@@H](Cc1ccccc1)[C@@H](O)C[C@H](Cc1ccccc1)NC(=O)[C@H](C(C)C)N1CCCNC1=O` came out at 67.4

Just so you know, measured viability decrease for `CC(C)c1cc2c(cc1S(=O)(=O)O)[C@@]1(C)CCC[C@@](C)(C(=O)O)[C@@H]1CC2` came out at 3.3

###

Assay: sensitizers of A549 cells to miR-34 induction, primary screen, imaging, A549 dox-inducible miR-34, nuclei and caspase counts (AID 1347080)
Conditions: A549 miR-34 inducible, Hoechst nuclei count, 48 h; measured here: total cells without miR-34 induction
// map cell count to label using interval 1 (below 5000), interval 2 (5000 to below 9000), interval 3 (9000 or more)

[[record]]
compound = "CN1C(=O)C(c2c[nH]c3ccccc23)=C(c2c[nH]c3ccccc23)C1=O"
class_name = "interval 2"

[[record]]
compound = "N#Cc1c(NC(=O)c2ccccc2F)sc2c1CCCC2"
class_name = "interval 2"

[[record]]
compound = "O=C1NC(=O)C(c2c[nH]c3ccccc23)=C1c1c[nH]c2ccccc12"
class_name = "interval 1"


Hi, small favor: classify `Fc1ccc(-c2nc3n(c2-c2ccncc2)CCS3)cc1` by its cell count when you get a moment.
interval 2

Hi, small favor: classify `CC(=O)OCC(=O)[C@@]1(O)CC[C@H]2[C@@H]3CCC4=CC(=O)C=C[C@]4(C)[C@H]3[C@@H](O)C[C@@]21C` by its cell count when you get a moment.
interval 2

Hi, small favor: classify `CC[C@]1(O)C[C@@H]2CN(CCc3c([nH]c4ccccc34)[C@@](C(=O)OC)(c3cc4c(cc3OC)N(C)[C@H]3[C@@](O)(C(=O)OC)[C@H](OC(C)=O)[C@]5(CC)C=CCN6CC[C@]43[C@@H]65)C2)C1` by its cell count when you get a moment.
interval 1

Hi, small favor: classify `Cn1cc(C2=C(c3cn(CCCN)c4ccccc34)C(=O)NC2=O)c2ccccc21` by its cell count when you get a moment.
interval 1

###

Assay: stimulators of nuclear beta-catenin in C2C12, primary screen, imaging, WNT3A-conditioned medium, mouse C2C12, NPC library (AID 1117326)
Conditions: at 10 µM
Activity calls are given as the source filed them. Rule as the data show it: active = nuclear beta-catenin stimulation mostly above about 4.2% (no sharp cut-off); inactive = mostly below about 10%.
Choose one outcome from this list and give only that: active, inactive

Lab log entry: `OC[C@]1(O)OC[C@@H](O)[C@H](O)[C@@H]1O` — outcome as called in the assay?
inactive

Lab log entry: `N#CC1(c2ccc(F)cc2)CCC(=O)CC1` — outcome as called in the assay?
inactive

Lab log entry: COC(=O)C1=C(C)NC(C)=C(C(=O)OCC(C)=O)C1c1ccccc1[N+](=O)[O-] (configuration not stated) — outcome as called in the assay?
inactive

Lab log entry: CCCNCC(O)COc1ccccc1C(=O)CCc1ccccc1 (configuration not stated) — outcome as called in the assay?
inactive

Lab log entry: `C[N+](C)(CCOc1ccccc1)Cc1cccs1` — outcome as called in the assay?
inactive

Lab log entry: CCCC(O)C(CC)CO (configuration not stated) — outcome as called in the assay?
inactive

Lab log entry: `CCOC(=O)c1cccnc1` — outcome as called in the assay?
inactive

Lab log entry: `COc1cc2nc(N3CCN(C(=O)c4ccco4)CC3)nc(N)c2cc1OC` — outcome as called in the assay?
active

Lab log entry: `CCN1CCN(c2cc(-c3ccc(F)cc3)c3c(n2)CCCCCC3)CC1` — outcome as called in the assay?
inactive

Lab log entry: NC[C@H]1O[C@H](O[C@H]2[C@H](O[C@@H]3O[C@H](CO)[C@@H](O)[C@H]3O)C(O)[C@H](N)C[C@@H]2N)[C@H](N)[C@@H](O)[C@@H]1O (some centres not stated) — outcome as called in the assay?
inactive

Lab log entry: `CCc1cccc2c(CCO)c[nH]c12` — outcome as called in the assay?
inactive

Lab log entry: `CCN(CC)C(=O)[C@]1(c2ccccc2)C[C@H]1CN` — outcome as called in the assay?
inactive

Lab log entry: `CN(C)[C@@H]1C(=O)C(C(N)=O)=C(O)[C@@]2(O)C(=O)C3=C(O)c4c(O)cccc4C[C@H]3C[C@@H]12` — outcome as called in the assay?
inactive

Lab log entry: `Cc1cc2nc3c(=O)[nH]c(=O)nc-3n(C[C@H](O)[C@H](O)[C@H](O)COP(=O)(O)OP(=O)(O)OC[C@H]3O[C@@H](n4cnc5c(N)ncnc54)[C@H](O)[C@H]3O)c2cc1C` — outcome as called in the assay?
inactive

Lab log entry: CCCCC(CC)CNC(=O)CC(C)OC(=O)CCC(=O)O (configuration not stated) — outcome as called in the assay?
inactive

Lab log entry: `COc1ccc([C@@H]2Sc3ccccc3NC(=O)[C@@H]2O)cc1` — outcome as called in the assay?
inactive

Lab log entry: `CC/C=C(\C(=O)N[C@@H]1C(=O)N2C(C(=O)OCOC(=O)C(C)(C)C)=C(COC(N)=O)CS[C@H]12)c1csc(N)n1` — outcome as called in the assay?
inactive

Lab log entry: CCC(C(=O)NC(=O)NC(C)=O)c1ccccc1 (configuration not stated) — outcome as called in the assay?
inactive

Lab log entry: `Cc1ccc2ccc(Cl)cc2n1` — outcome as called in the assay?
inactive

Lab log entry: `NCCCC[C@H](N)C(=O)O` — outcome as called in the assay?
inactive

Lab log entry: `CON=C(C(=O)N[C@@H]1C(=O)N2C(C(=O)O)=C(C[N+]3(C)CCCC3)CS[C@H]12)c1csc(N)n1` — outcome as called in the assay?
inactive

Lab log entry: `CCCOC(=O)c1cc(O)c(O)c(O)c1` — outcome as called in the assay?
inactive

The reported numbers originate from PubChem BioAssay.
